Data credit: patent US6133258A

System: primary rat hippocampal cultures
Assay: Inhibition of kainic acid neurotoxicity (LDH release) in primary rat hippocampal cultures
Type: cell-based
Condition summary: Hippocampal neuron; 300 μM kainic acid, 24 hours, primary rat hippocampal neurons, lactate dehydrogenase release
Result type: IC50 (µM)

> print(dat)
                                   compound  unit.of.measurement  recorded.result
1  CN(c1ccc(Br)cc1)c1nc(=O)c2cccnc2s1 [16-2)]                   µM                1
2  CN(c1ccc(Cl)cc1)c1nc(=O)c2cccnc2s1 [Example 64]                   µM              1.4
3  Cc1cccc(N(C)c2nc(=O)c3cccnc3s2)c1 [Example 72]                   µM              1.9
